Entries with reported pKi on mouse EP2 (Mus musculus, UniProt Q62053)
Sequence (Q62053 whole entry): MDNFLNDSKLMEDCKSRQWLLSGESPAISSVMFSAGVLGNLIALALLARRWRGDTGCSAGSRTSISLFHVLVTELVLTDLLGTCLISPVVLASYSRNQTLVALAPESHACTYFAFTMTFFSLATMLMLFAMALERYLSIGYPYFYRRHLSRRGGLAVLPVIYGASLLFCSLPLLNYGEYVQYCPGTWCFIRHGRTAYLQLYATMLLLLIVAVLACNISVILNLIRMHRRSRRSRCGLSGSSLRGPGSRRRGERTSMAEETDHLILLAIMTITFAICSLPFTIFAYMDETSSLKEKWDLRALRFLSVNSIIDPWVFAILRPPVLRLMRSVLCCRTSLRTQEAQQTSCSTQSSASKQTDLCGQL
Lab note: report pKi as minus log10 of the concentration in molar units, number only.

CCC1([C@@H](O)CCC[C@@H]2[C@@H](CCCCCCC(=O)O)[C@H](Cl)C[C@H]2O)CCC1
7.77

Here's the next entry for you.
Look up pKi: CCC1([C@@H](O)C/C=C/[C@@H]2[C@@H](CCCCCCC(=O)O)[C@H](Cl)C[C@H]2O)CCC1 8.09

* * *

Target: mouse EP4 (Mus musculus, UniProt P32240)
Sequence (P32240 whole entry): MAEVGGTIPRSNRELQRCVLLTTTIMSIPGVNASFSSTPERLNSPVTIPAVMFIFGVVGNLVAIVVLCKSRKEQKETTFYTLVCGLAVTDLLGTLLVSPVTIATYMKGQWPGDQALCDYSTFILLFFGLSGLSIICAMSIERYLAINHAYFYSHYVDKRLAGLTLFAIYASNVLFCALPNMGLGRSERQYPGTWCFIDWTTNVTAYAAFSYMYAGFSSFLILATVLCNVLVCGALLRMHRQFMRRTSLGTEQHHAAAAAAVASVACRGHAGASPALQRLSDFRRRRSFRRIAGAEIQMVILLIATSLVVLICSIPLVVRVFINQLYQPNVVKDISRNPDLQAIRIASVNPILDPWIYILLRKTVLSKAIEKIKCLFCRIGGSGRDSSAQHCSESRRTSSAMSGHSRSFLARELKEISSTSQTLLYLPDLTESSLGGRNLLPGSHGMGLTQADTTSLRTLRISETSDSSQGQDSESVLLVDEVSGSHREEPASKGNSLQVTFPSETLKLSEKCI
assay readout: Ki

Looking for the measured Ki of CCC1([C@@H](O)C/C=C/[C@@H]2[C@@H](CCCCCCC(=O)O)[C@H](F)C[C@H]2O)CCC1 , can you help? > 10 µM

* * *

Target or system mouse EP1 (Mus musculus): recorded Ki listed per item.

CCC1([C@@H](O)C/C=C/[C@@H]2[C@@H](CCCCCCC(=O)O)[C@H](F)C[C@H]2O)CCC1
> 10 µM

Lab note: need Ki for CCC1([C@@H](O)CCC[C@@H]2[C@@H](CCCCCCC(=O)O)[C@H](Cl)C[C@H]2O)CCC1 on mouse EP1 (Mus musculus), anyone have it? 3.5 µM
